Listed next: entries and their corresponding Ki.
study target: Exonuclease I/SSB-Ct complex (Escherichia coli, UniProt P04995)
Sequence (P04995 whole entry, one chain of several): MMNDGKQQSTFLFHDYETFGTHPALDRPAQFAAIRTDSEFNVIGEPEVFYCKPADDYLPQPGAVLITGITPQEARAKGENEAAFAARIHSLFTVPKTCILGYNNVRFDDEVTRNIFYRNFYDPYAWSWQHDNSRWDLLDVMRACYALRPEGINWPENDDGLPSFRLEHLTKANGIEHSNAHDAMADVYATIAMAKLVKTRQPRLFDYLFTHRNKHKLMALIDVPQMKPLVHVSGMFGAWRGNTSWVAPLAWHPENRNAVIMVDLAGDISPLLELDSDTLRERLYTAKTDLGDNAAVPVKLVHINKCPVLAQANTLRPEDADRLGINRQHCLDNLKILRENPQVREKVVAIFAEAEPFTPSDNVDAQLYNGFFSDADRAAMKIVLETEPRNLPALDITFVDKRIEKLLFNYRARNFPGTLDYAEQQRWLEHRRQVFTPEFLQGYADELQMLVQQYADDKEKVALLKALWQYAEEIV
method summary: Fluorescence polarization competition: inhibition of fluorescein-SSB C-terminal peptide binding to Exonuclease I (HTS and Ki determination)
experimental parameters: Ki, compound listing

The following compounds have reported results that may help.
• COc1ccc(Nc2cc(C(F)(F)F)ccc2Cl)c(C(=O)O)c1 = ~0.125 µM
• CC(C)(C)C1=NN(c2nc3ccc(Cl)cc3s2)C(=O)C1 = ~0.773 µM
• O=C(O)C(Cc1ccccc1)N1C(=O)/C(=C/c2cccc(Br)c2)SC1=S (stereo not shown) = ~2.5 µM

Problem: Return reported Ki; argument: CC(/C=C1\SC(=S)N(C(C(=O)O)c2ccccc2)C1=O)=C\c1ccccc1 (stereo not shown)
Solution: ~4 µM
